Source of measurements: paper PMC9252919

System: AML cell line HL-60
test_protocol: N-Acetyl cysteine cytotoxicity assay (trypan blue exclusion)
Format: cell-based
cond: Homo sapiens, 96 h, without NAC, read-out: IC50, toxicity to HL-60 without NAC
Would you kindly list IC50 for each of these molecules?
Field format: number, assumed µM, no unit text.

Q: Given the entry CC1(C)CCC2=C(O1)c1ccccc1C(=O)C2=O [Compound 1, β-lapachone, reference compound] , what IC50 was observed with AML cell line HL-60?
Ans: 0.47

Q: Given the entry CC1(C)CCC2=C(O1)c1ccccc1C(O)(Cc1ccccc1)C2=O (centres unmarked) , what IC50 was observed with AML cell line HL-60?
Ans: 13.6

----------
target_system: recombinant human 5-LO (Homo sapiens, UniProt P09917)
Construct: made in house; host or cells: Escherichia coli BL21
Sequence (P09917 whole entry): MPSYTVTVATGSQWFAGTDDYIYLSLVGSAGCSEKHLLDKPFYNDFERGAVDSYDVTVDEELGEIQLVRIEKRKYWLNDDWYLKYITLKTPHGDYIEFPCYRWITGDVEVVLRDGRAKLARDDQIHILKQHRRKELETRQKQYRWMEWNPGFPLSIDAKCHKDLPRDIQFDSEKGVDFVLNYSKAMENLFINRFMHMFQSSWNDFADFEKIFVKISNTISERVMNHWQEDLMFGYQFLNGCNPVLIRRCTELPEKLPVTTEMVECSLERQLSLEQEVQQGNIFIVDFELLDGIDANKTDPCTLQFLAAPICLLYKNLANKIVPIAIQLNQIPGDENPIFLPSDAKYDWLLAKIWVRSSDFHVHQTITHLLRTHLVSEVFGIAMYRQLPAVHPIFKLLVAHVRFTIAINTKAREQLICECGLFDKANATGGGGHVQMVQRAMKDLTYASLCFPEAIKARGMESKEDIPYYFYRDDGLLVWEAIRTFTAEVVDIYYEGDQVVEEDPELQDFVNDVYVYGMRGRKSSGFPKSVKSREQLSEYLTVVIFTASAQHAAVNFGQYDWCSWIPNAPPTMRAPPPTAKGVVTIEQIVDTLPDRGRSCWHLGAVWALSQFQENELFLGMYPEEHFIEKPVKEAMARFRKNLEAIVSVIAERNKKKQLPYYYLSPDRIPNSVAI
test_protocol: Cell-free activity assay for recombinant human 5-LO
Format: biochemical
cond: with DTT (1 mM); read-out: IC50, 5-LO inhibition with DTT
result_type: IC50 (µM)
Field format: number, assumed µM, no unit text.

Q: Name the recorded IC50 for CC1(C)CCc2c3c(c4ccccc4c2O1)OCCO3 [Compound 25] .
Ans: 11.5

Q: Name the recorded IC50 for CC1(C)CCC2=C(O1)c1ccccc1C(O)(Cc1ccccc1)C2=O (stereo not drawn) [Compound 24, benzyl β-lapa-ketol] .
Ans: 10.4
